Values from ChEMBL document CHEMBL1135157

experiment: Inhibition of Very late antigen 4/vascular cell adhesion molecule 1 activity in ELISA assay, at 10 nM concentration
assayEndpoint: inhibition (%)

Below are worked cases with known answers.
(Q) Kindly indicate its recorded inhibition. Item: O=C(Nc1ccc(C[C@H](NC(=O)C2CCCCC2)C(=O)O)cc1)c1ccnc2ccccc12
(A) 37

(Q) Tell me inhibition reported for O=C(N[C@@H](Cc1ccc(NC(=O)c2ccnc3ccccc23)cc1)C(=O)O)c1ccccc1Cl
(A) 68

(Q) Write down inhibition measured for item CC(C)C(C(=O)N[C@@H](Cc1ccc(NC(=O)c2ccnc3ccccc23)cc1)C(=O)O)c1ccccc1 (some centres not stated)
(A) 73

1 = Cc1cccc(C)c1C(=O)N[C@@H](Cc1ccc(NC(=O)c2ccnc3ccccc23)cc1)C(=O)O
2 = C[C@H]1CC[C@@](C)(C(=O)N[C@@H](Cc2ccc(NC(=O)c3ccnc4ccccc34)cc2)C(=O)O)C1(C)C
(Q) Looking at recorded values for inhibition, does 1 or 2 come in lower? Reply with the label of the item you choose.
(A) 2

A = CC1(C(=O)N[C@@H](Cc2ccc(NC(=O)c3ccnc4ccccc34)cc2)C(=O)O)CC1(Cl)Cl (some centres not stated)
B = CCC(C)(C)C(=O)N[C@@H](Cc1ccc(NC(=O)c2ccnc3ccccc23)cc1)C(=O)O
C = O=C(Nc1ccc(C[C@H](NC(=O)C2(c3ccccc3)CC2)C(=O)O)cc1)c1ccnc2ccccc12
(Q) List these items ordered by inhibition, big to small. In your reply, arrange the labels in the requested order.
(A) A, B, C
(A: 69%, B: 30%, C: 19%)

A = O=C(N[C@@H](Cc1ccc(NC(=O)c2ccnc3ccccc23)cc1)C(=O)O)c1cccnc1Cl
B = O=C(Nc1ccc(C[C@H](NC(=O)[C@@H]2CSCN2C(=O)c2ccccc2)C(=O)O)cc1)c1ccnc2ccccc12
(Q) Between item A and item B , which reported inhibition is smaller? Give the label of your selection.
(A) B

###

assay: Inhibition of Very late antigen 4/vascular cell adhesion molecule 1 activity in ELISA assay, at 10 nM concentration
assayEndpoint: inhibition (%)

1 = O=C(Nc1ccc(C[C@H](NC(=O)C2CCC2)C(=O)O)cc1)c1ccnc2ccccc12
2 = Cc1ccc(C2(C(=O)N[C@@H](Cc3ccc(NC(=O)c4ccnc5ccccc45)cc3)C(=O)O)CCCC2)cc1
3 = O=C(N[C@@H](Cc1ccc(NC(=O)c2ccnc3ccccc23)cc1)C(=O)O)c1ccccc1F
(Q) Order by inhibition, smallest first, the items presented above. Answer with the labels in sequence, matching the requested order.
(A) 1, 3, 2
(1: 17%, 3: 42%, 2: 63%)

1 = O=C(N[C@@H](Cc1ccc(NC(=O)c2ccnc3ccccc23)cc1)C(=O)O)c1ccccc1
2 = O=C(Nc1ccc(C[C@H](NC(=O)[C@@H]2CSCN2C(=O)CCc2ccccc2)C(=O)O)cc1)c1ccnc2ccccc12
3 = COc1ccc(C2(C(=O)N[C@@H](Cc3ccc(NC(=O)c4ccnc5ccccc45)cc3)C(=O)O)CCCCC2)cc1
4 = O=C(CCc1ccccc1)N[C@@H](Cc1ccc(NC(=O)c2ccnc3ccccc23)cc1)C(=O)O
(Q) Reorder the items by inhibition, least to greatest. List labels; respect the requested ordering.
(A) 4, 1, 2, 3
(4: 12%, 1: 19%, 2: 53%, 3: 77%)

###

assay: Inhibition of Very late antigen 4/vascular cell adhesion molecule 1 inhibition activity in an ELISA assay
assayEndpoint: IC50 (nM)

Here's what some known entries look like.
(Q) Respond only with IC50 recorded for O=C(Nc1ccc(C[C@H](NC(=O)C2(c3ccccc3)CCCC2)C(=O)O)cc1)c1ccccc1
(A) 23

(Q) State its IC50: O=C(Nc1ccc(C[C@H](NC(=O)C2(c3ccccc3)CCCC2)C(=O)O)cc1)c1ccccc1C(F)(F)F
(A) 10

(Q) Dear colleague, please send me the reported IC50 for Cc1ccc(C2(C(=O)N[C@@H](Cc3ccc(NC(=O)c4ccnc5ccccc45)cc3)C(=O)O)CCCC2)cc1 when you can.
(A) 9.1

(Q) Consider the compound O=C(N[C@@H](Cc1ccc(NC(=O)c2ccnc3ccccc23)cc1)C(=O)O)c1cccnc1Cl . State its measured IC50.
(A) 6.6

(Q) Quickly give me recorded IC50 for O=C(Nc1ccc(C[C@H](NC(=O)C2(c3ccccc3)CCCCC2)C(=O)O)cc1)c1ccnc2ccccc12
(A) 5.6

(Q) Give a short answer stating reported IC50 for O=C(Nc1ccc(C[C@H](NC(=O)[C@@H]2CSCN2C(=O)CCc2ccccc2)C(=O)O)cc1)c1ccnc2ccccc12 .
(A) 1.9

P = O=C(Nc1ccc(C[C@H](NC(=O)C2(c3ccccc3)CCCC2)C(=O)O)cc1)c1nccc2ccccc12
Q = Cc1cccc(C)c1C(=O)N[C@@H](Cc1ccc(NC(=O)c2c(Cl)cccc2Cl)cc1)C(=O)O
(Q) # returns the entry with the larger IC50; inputs P and Q // caller expects the label of the chosen entry
(A) P

###

assay: Inhibition of Very late antigen 4/vascular cell adhesion molecule 1 inhibition activity in an ELISA assay
pIC50: −log10 of the molar value.
assayEndpoint: pIC50

(Q) Identify pIC50 associated with the compound COc1ccc(C2(C(=O)N[C@@H](Cc3ccc(NC(=O)c4ccnc5ccccc45)cc3)C(=O)O)CCCCC2)cc1
(A) 8.92

(Q) Identify pIC50 associated with the compound O=C(Nc1ccc(C[C@H](NC(=O)C23CC4CC(CC(C4)C2)C3)C(=O)O)cc1)c1ccnc2ccccc12
(A) 8.62

(Q) Please indicate pIC50 recorded for O=C(Nc1ccc(C[C@H](NC(=O)C2(c3ccccc3)CCCC2)C(=O)O)cc1)c1c(Cl)cccc1Cl
(A) 8.77

(Q) Name the recorded pIC50 of the compound listed here: O=C(N[C@@H](Cc1ccc(NC(=O)c2ccnc3ccccc23)cc1)C(=O)O)c1ccccc1Cl
(A) 8.54

(Q) Report pIC50 for O=C(Nc1ccc(C[C@H](NC(=O)C2(c3ccccc3)CCCC2)C(=O)O)cc1)c1ccnc2ccccc12 (stereo in doubt; 56)
(A) 8.57

(Q) Return pIC50 for the following compound: O=C(N[C@@H](Cc1ccc(NC(=O)c2ccnc3ccccc23)cc1)C(=O)O)c1c(F)cccc1F
(A) 8.77

P = O=C(N[C@@H](Cc1ccc(NC(=O)c2ccnc3ccccc23)cc1)C(=O)O)c1ccccc1Br
Q = CC1(C(=O)N[C@@H](Cc2ccc(NC(=O)c3ccnc4ccccc34)cc2)C(=O)O)CCCCC1
(Q) Field: lower recorded pIC50 (choose P or Q ) Could you answer with the label of the item you picked?
(A) Q
(Q: 8.15, P: 8.66)

###

assay: Inhibition of Very late antigen 4/vascular cell adhesion molecule 1 inhibition activity in an ELISA assay
pIC50: −log10 of the molar value.
assayEndpoint: pIC50

Recorded results for 5 molecules are shown here.
(Q) Respond only with pIC50 recorded for CC(C)C(C(=O)N[C@@H](Cc1ccc(NC(=O)c2ccnc3ccccc23)cc1)C(=O)O)c1ccccc1 (some centres not stated)
(A) 8.34

(Q) Given O=C(N[C@@H](Cc1ccc(NC(=O)c2ccnc3ccccc23)cc1)C(=O)O)c1ccccc1[N+](=O)[O-] , respond with its pIC50.
(A) 8.33

(Q) Assign pIC50 to the following record: CC(=O)N1CCC[C@H]1C(=O)N[C@@H](Cc1ccc(NC(=O)c2ccnc3ccccc23)cc1)C(=O)O
(A) 8.70

(Q) For the molecule Cc1cccc(C)c1C(=O)N[C@@H](Cc1ccc(NC(=O)c2ccnc3ccccc23)cc1)C(=O)O , give its reported pIC50.
(A) 8.60

(Q) For the molecule O=C(Nc1ccc(C[C@H](NC(=O)C2(c3ccccc3)CCCC2)C(=O)O)cc1)c1ccnc2ccccc12 (stereo in doubt; 46) , report pIC50.
(A) 8.47

a = C[C@H]1CC[C@@](C)(C(=O)N[C@@H](Cc2ccc(NC(=O)c3ccnc4ccccc34)cc2)C(=O)O)C1(C)C
b = CCC(C(=O)N[C@@H](Cc1ccc(NC(=O)c2ccnc3ccccc23)cc1)C(=O)O)c1ccccc1 (some centres not stated)
(Q) Form field 'greater pIC50' accepts a or b ; which applies? # respond with the chosen item's label
(A) a

###

molecular target: Integrin alpha-4/beta-1 (Homo sapiens, UniProt P05556+P13612); assay: Inhibition of Very late antigen 4 of Ramos cell adhesion to vascular cell adhesion molecule 1
Sequence (P05556 whole entry): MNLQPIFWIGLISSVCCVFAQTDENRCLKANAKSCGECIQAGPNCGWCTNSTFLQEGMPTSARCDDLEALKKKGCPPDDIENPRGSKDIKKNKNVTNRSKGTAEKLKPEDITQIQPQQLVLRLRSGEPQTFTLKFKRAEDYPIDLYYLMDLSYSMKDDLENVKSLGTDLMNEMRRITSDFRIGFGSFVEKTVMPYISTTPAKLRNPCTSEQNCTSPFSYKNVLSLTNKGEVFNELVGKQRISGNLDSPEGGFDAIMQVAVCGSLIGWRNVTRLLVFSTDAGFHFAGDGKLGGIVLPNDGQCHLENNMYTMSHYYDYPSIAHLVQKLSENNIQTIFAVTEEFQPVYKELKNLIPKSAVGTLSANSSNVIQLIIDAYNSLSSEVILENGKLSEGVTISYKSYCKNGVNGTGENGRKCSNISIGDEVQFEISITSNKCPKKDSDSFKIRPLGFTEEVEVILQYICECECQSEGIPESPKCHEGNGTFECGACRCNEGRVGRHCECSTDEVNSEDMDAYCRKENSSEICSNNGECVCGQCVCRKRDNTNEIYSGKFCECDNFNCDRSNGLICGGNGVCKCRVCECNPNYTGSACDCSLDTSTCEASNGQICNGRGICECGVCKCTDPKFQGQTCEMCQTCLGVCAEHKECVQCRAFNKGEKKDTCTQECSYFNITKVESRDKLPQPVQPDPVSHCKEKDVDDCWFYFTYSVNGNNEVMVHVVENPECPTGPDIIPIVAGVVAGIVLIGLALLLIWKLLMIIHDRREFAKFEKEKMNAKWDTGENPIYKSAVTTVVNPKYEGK
Sequence (P13612 whole entry): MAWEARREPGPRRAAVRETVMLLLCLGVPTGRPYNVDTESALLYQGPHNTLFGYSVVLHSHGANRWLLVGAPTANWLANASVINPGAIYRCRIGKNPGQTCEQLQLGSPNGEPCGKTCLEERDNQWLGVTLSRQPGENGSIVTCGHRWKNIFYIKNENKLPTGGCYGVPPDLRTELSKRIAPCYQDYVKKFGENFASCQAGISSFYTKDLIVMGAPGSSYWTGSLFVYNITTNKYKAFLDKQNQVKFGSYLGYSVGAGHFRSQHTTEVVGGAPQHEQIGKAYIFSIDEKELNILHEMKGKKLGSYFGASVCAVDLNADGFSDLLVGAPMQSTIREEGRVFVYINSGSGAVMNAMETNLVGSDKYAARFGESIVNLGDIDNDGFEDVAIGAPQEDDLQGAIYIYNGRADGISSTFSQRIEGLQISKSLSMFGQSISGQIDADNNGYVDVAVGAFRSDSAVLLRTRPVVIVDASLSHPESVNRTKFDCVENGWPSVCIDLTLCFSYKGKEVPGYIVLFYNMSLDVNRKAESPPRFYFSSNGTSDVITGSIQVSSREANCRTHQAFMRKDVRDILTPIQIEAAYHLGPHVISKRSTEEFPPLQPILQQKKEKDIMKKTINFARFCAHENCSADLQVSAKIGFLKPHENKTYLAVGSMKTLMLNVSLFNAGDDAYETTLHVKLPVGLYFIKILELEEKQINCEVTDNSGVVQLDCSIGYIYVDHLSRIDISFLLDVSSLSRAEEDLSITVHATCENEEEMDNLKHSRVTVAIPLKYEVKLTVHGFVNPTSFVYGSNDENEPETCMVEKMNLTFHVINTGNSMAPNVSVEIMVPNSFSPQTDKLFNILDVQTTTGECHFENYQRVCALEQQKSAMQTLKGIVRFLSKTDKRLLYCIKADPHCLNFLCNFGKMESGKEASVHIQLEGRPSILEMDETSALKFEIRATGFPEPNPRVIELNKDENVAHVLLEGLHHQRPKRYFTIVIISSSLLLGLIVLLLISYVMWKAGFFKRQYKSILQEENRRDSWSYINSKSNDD
assayEndpoint: IC50 (nM)

Completed entries (count: 3):
(Q) Kindly indicate its recorded IC50. Item: O=C(Nc1ccc(C[C@H](NC(=O)C2(c3ccccc3)CCCC2)C(=O)O)cc1)c1c(Cl)cccc1Cl
(A) 98

(Q) Give the reported value of IC50 for this record: O=C(Nc1ccc(C[C@H](NC(=O)C2(c3ccccc3)CCCC2)C(=O)O)cc1)c1nccc2ccccc12
(A) 1300

(Q) Query IC50 for O=C(Nc1ccc(C[C@H](NC(=O)C2(c3ccccc3)CCCC2)C(=O)O)cc1)c1ccnc2ccccc12 (stereo in doubt; 56)
(A) 590

P = O=C(Nc1ccc(C[C@H](NC(=O)[C@H]2CCC(=O)N2Cc2ccccc2)C(=O)O)cc1)c1c(Cl)cccc1Cl
Q = Cc1cccc(C)c1C(=O)N[C@@H](Cc1ccc(NC(=O)c2c(Cl)cccc2Cl)cc1)C(=O)O
(Q) Select one: P or Q . Criterion: greater recorded IC50. Label of pick, please.
(A) Q
